Assignment: determine reported IC50 for the given compounds.
TARGET OR TEST SYSTEM: HCV polymerase (Hepatitis C virus genotype 1b, UniProt P26663)
Construct: a region encoding NS5B (591 amino acids; J Virol 1991 Mar, 65(3), 1105-13) was amplified by PCR; 6 His (N); made in house; host or cells: Escherichia coli
Sequence (P26663 2420-3010): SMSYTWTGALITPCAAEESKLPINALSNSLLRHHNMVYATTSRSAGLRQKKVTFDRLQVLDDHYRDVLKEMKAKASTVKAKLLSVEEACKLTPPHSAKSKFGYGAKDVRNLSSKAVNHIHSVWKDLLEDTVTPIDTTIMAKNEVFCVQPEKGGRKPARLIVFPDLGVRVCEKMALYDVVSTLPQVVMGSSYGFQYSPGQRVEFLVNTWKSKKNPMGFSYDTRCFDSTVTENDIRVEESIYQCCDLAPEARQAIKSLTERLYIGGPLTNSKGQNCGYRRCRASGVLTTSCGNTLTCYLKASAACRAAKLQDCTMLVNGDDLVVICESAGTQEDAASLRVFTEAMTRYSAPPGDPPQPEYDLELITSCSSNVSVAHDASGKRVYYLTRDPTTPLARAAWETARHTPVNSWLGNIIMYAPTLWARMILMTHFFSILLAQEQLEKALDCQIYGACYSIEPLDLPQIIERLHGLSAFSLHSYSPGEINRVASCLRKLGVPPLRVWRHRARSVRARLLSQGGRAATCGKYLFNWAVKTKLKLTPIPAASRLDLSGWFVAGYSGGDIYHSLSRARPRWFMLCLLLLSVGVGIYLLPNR
TEST DESCRIPTION: biochemical
EXPERIMENTAL SETUP: read-out: HCV polymerase inhibitory activity IC50
Where a name gives a salt, the structure may show the parent alone.
Write down the numeric answer in nM and omit the unit.

Exam item: For the compound O=C(O)c1ccc2c(c1)nc(-c1ccc(OCc3cc(OCCN4CCC(O)CC4)ccc3-c3ccc(Cl)cc3)cc1)n2C1CCCCC1 [Example 370, hydrochloride] , what IC50 is on record?
Marked response: 17

Exam item: For the compound O=C(O)c1ccc2c(c1)nc(-c1ccc(OCc3cc(N4CCCC4=O)c(F)cc3-c3ccc(Cl)cc3)cc1F)n2C1CCCCC1 [Example 454, hydrochloride] , what IC50 is on record?
Marked response: 13

Exam item: For the compound O=C(O)c1ccc2c(c1)nc(-c1ccc(OCc3cc(C(=O)NCC(O)CO)ccc3-c3ccc(Cl)cc3)cc1F)n2C1CCCCC1 (stereo not drawn) [Example 383, hydrochloride] , what IC50 is on record?
Marked response: 13

Exam item: For the compound `O=C(O)c1ccc2c(c1)nc(-c1ccc(OCc3cc(Cl)ccc3Br)cc1)n2C1CCCCC1` , what IC50 is on record?
Marked response: 140

Exam item: For the compound `CC(C)NC(=O)c1ccc(-c2ccc(F)c(F)c2)c(COc2ccc(-c3nc4cc(C(=O)O)ccc4n3C3CCCCC3)c(F)c2)c1` , what IC50 is on record?
Marked response: 25

Exam item: For the compound CN(C)C(=O)c1ccc(-c2ccc(Cl)cc2)c(COc2ccc(-c3nc4cc(C(=O)O)ccc4n3C3CCCC3)cc2)c1 [Example 414, hydrochloride] , what IC50 is on record?
Marked response: 24

Exam item: For the compound `Nc1ccc(-c2ccc(Cl)cc2)c(COc2ccc(-c3nc4cc(C(=O)O)ccc4n3C3CCCCC3)cc2)c1` , what IC50 is on record?
Marked response: 23

Exam item: For the compound `CN(C)C(=O)c1ccc(-c2ccc(C(N)=O)cc2)c(COc2ccc(-c3nc4cc(C(=O)O)ccc4n3C3CCCCC3)cc2)c1` , what IC50 is on record?
Marked response: 22

Exam item: For the compound `Cc1nc(-c2ccc(F)cc2)c(COc2ccc(-c3nc4cc(C(=O)O)ccc4n3C3CCCCC3)cc2)s1` , what IC50 is on record?
Marked response: 47
